- Test system: porcine liver primary cell culture (PLP1)
PARAMETER: GI50 (µM)

                                   compound  parameter  measured_result
0  Cc1c2ccncc2c(C)c2c1[nH]c1ccccc12 [Ellipticine, reference compound]       GI50             4.19

====

What follows is a collection of GI50 values obtained with NCI-H460 (non-small cell lung cancer).
PARAMETER: GI50 (µM)

COMPOUND	LIMIT_OPERATOR	MEASURED_RESULT
COC(=O)c1sc2cccnc2c1Nc1ccc(OC)cc1N	=	1.4
COC(=O)c1sc2cccnc2c1Nc1ccccc1N	=	31.3
COc1cccc2c1C(=O)c1c(O)c3c(c(O)c1C2=O)C[C@@](O)(C(=O)CO)C[C@@H]3O[C@H]1C[C@H](N)[C@H](O)[C@H](C)O1 [Doxorubicin, reference compound]	=	0.09
COC(=O)c1sc2cccnc2c1Nc1ccc(N)cc1	>	125
